// data source = the supplement of paper PMC10567573

B1: C22orf15 (parent)
chain: RGRHEQSPTSRPRKVSSLPPRSC

variants of: B1; assay: protein stability index of a GFP-peptide fusion (GPS, HEK-293T) (PSI 1-6); higher = more stable; details: c terminus: native;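 further: lentivirally expressed fusions sorted by FACS into six bins by GFP to DsRed ratio, PSI derived from sequencing read proportions per bin multiplied by bin number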
Threshold rule: protein stability index greater than or equal to 3 is Y; below that, N.

MUT | CLASS_NAME
G2Q | N
G2D | N
R21P | Y
T9H | N
R21C | Y
R13E | N
P12W | N
S16W | N
S17G | N
Q6W | Y
